// pKd lookup, one value per entry
- TARGET_OR_SYSTEM: T1, IL2RB, Human
- T1 construct: Same protein as m17, but here as recombinant protein in solution, not on CHO cells; also called human IL-2RB (AcroBiosystems); IL-2Rβ
- T1 receptor chain: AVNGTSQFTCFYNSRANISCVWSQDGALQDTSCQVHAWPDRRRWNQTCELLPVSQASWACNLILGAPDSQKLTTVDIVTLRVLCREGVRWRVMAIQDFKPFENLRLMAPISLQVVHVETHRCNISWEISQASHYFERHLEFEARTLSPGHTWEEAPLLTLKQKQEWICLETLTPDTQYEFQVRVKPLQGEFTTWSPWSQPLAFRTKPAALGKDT
- PROTOCOL_NOTES: biolayer interferometry (Octet Qk384), antibody captured on anti-human Fc (AHC) sensors, antigen 7.8-500 nM in solution, 1:1 fit, KD = kd/ka
pKd: −log10 of the molar value.
ENDPOINT_NAME: pKd

{"BINDER": "BsAb-3 (IL2RB_F09G**IL2RG_F16C) (bispecific antibody, human IgG4, V domains shown, Heavy chain-only bispecific on silenced, stabilised human IgG4 Fc, knobs-into-holes, no light chains; not shown: C-terminal His-tag on the knob chain) V domain 1: QVQLQESGPGLVKSSETLSLTCTVSGGSISSSDWWSWVRQPPGKGLEWIGEIDHSGSTNYNPSLMSRVTISVDKSKNQFSLKLSSVTAADTAVYFCARGSWELTDAFDIRGQGTLVTVSS V domain 2: QVQLVESGGGLVKPGGSLRLSCAASGFTFNDYYMSWIRQAPGKGLEWVSHISSSGSTIYYADSVKGRFTVSRDNANNSLYLQMHSLRAEDTAVYYCARGDAVSITGDYRGQGTLVTVSS", "ENDPOINT_NAME": "pKd", "MEASURED_RESULT": 7.01}
{"BINDER": "BsAb-5 (IL2RB_F09K**IL2RG_F16B) (bispecific antibody, human IgG4, V domains shown, Heavy chain-only bispecific on silenced, stabilised human IgG4 Fc, knobs-into-holes, no light chains; not shown: C-terminal His-tag on the knob chain) V domain 1: QVQLQESSPGLVKPSETLSLTCTVSGGSISSSNWWSWVRQPPGKGLEWIGEISHSGSTNYNPSLKSRVTISVDKSKNQFSLRLSSVTAADTAVYFCGRGSWELTDAFDIRGQGTLVTVSS V domain 2: QVQLVESGGGLVKPGGSLRLSCAASGFTFSDYYMSWIRQAPGKGLEWVSYISSSGSTIYYADSVKGRFTISRDNAKNSLYLQMNSLRAEDTAVYYCARGDAVSITGDYRGQGTLVTVSS", "ENDPOINT_NAME": "pKd", "MEASURED_RESULT": 6.74}
{"BINDER": "BsAb-2 (IL2RB_F09G**IL2RG_F16B) (bispecific antibody, human IgG4, V domains shown, Heavy chain-only bispecific on silenced, stabilised human IgG4 Fc, knobs-into-holes, no light chains; not shown: C-terminal His-tag on the knob chain) V domain 1: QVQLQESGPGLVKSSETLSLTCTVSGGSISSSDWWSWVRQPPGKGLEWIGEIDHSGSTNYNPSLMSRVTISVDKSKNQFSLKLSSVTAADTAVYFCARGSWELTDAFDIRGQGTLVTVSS V domain 2: QVQLVESGGGLVKPGGSLRLSCAASGFTFSDYYMSWIRQAPGKGLEWVSYISSSGSTIYYADSVKGRFTISRDNAKNSLYLQMNSLRAEDTAVYYCARGDAVSITGDYRGQGTLVTVSS", "ENDPOINT_NAME": "pKd", "MEASURED_RESULT": 7.03}
{"BINDER": "BsAb-4 (IL2RB_F09G**IL2RG_F18A) (bispecific antibody, human IgG4, V domains shown, Heavy chain-only bispecific on silenced, stabilised human IgG4 Fc, knobs-into-holes, no light chains; not shown: C-terminal His-tag on the knob chain) V domain 1: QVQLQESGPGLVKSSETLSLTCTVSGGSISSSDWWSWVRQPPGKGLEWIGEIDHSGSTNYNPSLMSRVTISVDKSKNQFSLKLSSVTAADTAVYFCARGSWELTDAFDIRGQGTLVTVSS V domain 2: QVQLVESGGDLVKPGGSLRLSCAASGFTFSDYYMSWLRQAPGKELEWVSHISSSGTTTYYADSVEGRFTITRDNAKNSLYLQMNSLRAEDTAVYYCARGAAVAPGFDSRGQGTLVTVSS", "ENDPOINT_NAME": "pKd", "MEASURED_RESULT": 7.08}
{"BINDER": "BsAb-6 (IL2RB_F18E**IL2RG_F16A) (bispecific antibody, human IgG4, V domains shown, Heavy chain-only bispecific on silenced, stabilised human IgG4 Fc, knobs-into-holes, no light chains; not shown: C-terminal His-tag on the knob chain) V domain 1: QVQLVESGGGVVQPGRSLRLSCAASGFTFSSYGMHWVRQAPGKEREWVAVISYDGSNKYYTDSVKGRFTISRDNSKNTLYLEMNSLRAEDTAVYYCARDLDYDVLTGDPVGGFDIWGQGTLVTVSS V domain 2: QVQLVESGGGLVKPGGSLRLSCAASGFTFSDYYMSWIRQAPGKGLEWVSSISSSGDTIYYADSVQGRFTLSRDNAENSLFLQMNSLRAEDTAVYYCARGDAVSITGDYRGQGTLVTVSS", "ENDPOINT_NAME": "pKd", "MEASURED_RESULT": 7.27}
{"BINDER": "BsAb-1 (IL2RB_F09C**IL2RG_F16A) (bispecific antibody, human IgG4, V domains shown, Heavy chain-only bispecific on silenced, stabilised human IgG4 Fc, knobs-into-holes, no light chains; not shown: C-terminal His-tag on the knob chain) V domain 1: QVQLQESGPGLVKPSGTLSLTCAVSGGSISSSDWWSWVRQPPGKGLEWIGEIDHSGSTNYNPSLMSRVTISVDKSKNQFSLKLSSVTAADTAVYFCGRGSWELSDAFDIRGQGTLVTVSS V domain 2: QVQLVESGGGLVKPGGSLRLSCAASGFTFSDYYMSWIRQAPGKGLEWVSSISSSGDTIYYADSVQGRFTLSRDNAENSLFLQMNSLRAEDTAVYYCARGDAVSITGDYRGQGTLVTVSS", "ENDPOINT_NAME": "pKd", "MEASURED_RESULT": 7.73}
